System tested: furin (endogenous protease) in U20S cells (Homo sapiens)
Construct: the endogenous protease cleaves GFP; endogenous in cells; host or cells: U2OS cells transduced with a BacMam reporter
Sequence (P09958 108-794): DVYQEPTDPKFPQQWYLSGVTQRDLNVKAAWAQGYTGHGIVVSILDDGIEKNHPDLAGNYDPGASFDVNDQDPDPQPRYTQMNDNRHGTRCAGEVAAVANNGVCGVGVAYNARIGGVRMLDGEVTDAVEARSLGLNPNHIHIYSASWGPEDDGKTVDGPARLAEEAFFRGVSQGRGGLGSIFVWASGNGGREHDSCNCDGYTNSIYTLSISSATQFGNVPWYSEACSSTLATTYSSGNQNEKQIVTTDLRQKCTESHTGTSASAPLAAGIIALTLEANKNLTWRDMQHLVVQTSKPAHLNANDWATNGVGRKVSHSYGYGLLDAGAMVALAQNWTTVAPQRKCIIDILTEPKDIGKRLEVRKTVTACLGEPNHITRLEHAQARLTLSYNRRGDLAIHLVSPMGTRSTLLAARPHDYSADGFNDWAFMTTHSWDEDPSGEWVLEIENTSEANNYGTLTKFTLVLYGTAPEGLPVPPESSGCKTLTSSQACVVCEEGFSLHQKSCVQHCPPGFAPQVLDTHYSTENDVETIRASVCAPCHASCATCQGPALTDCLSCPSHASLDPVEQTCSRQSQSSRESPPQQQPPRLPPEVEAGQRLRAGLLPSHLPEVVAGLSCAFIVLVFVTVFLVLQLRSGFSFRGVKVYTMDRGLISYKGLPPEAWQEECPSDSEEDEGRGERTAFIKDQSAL
Experiment summary: Furin cell-based assay (image-based, Golgi-targeted GFP with BMP10 furin/PCSK cleavage site);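 note: Read-out is mean GFP fluorescence of Golgi puncta per cell by high-content imaging, retained when furin inhibited, over an eleven-point 0.00017–10 µM series, four-parameter fit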
Details: 24-hour incubation, read-out: furin golgi cell pXC50 (converted)
Structures can show the parent of a compound that is named as a salt.
Quantity measured: EC50 (nM)

Solved cases below.
Compound: CS(=O)(=O)CCCN1CCN(c2ncc(Oc3cc(CN4CCC(CCC(=O)O)CC4)cc(-c4cc(Cl)cc(Cl)c4)n3)cn2)CC1
Unit abbreviation: nM
Measured result: 31.6
--
Compound: CNC(=O)NCC1CCN(Cc2cc(Oc3cnc(N4CCNCC4)nc3)nc(-c3cc(Cl)cc(Cl)c3)c2)CC1 [Example 75, hydrochloride]
Unit abbreviation: nM
Measured result: 3.16
--
Compound: CC(=O)NCC1CCN(Cc2cc(Oc3ccc(N4CC5CCC(C4)N5CCC(=O)O)nc3)nc(-c3cc(Cl)cc(Cl)c3)c2)CC1
Unit abbreviation: nM
Measured result: 31.6
--
Compound: CN1CCN(c2ncc(Oc3cc(CN4CCC(CCC(=O)O)CC4)cc(-c4cc(Cl)cc(Cl)c4)n3)cn2)CC1
Unit abbreviation: nM
Measured result: 7.94

A. CN1CCCN(c2ncc(Oc3cc(CN4CC[C@@H]5[C@H](CC4)[C@H]5C(=O)O)cc(-c4cc(Cl)cc(Cl)c4)n3)cn2)CC1 [Example 397, hydrochloride]
B. Cc1nc(N2CCN(C)CC2)ccc1Oc1cc(CN2CCC(CC(=O)O)CC2)cc(-c2cc(Cl)cc(Cl)c2)n1
# input Larger number for EC50: A , or B ? Lab log: write the label of the selected item as the result.
# output B
(B: 79.4 nM, A: 25.1 nM)

Data credit: patent US11773078B2
